test: MM1S myeloma cell viability, profiling panel, resazurin fluorescence, basal, 24 h, PK04 Diversity Set (AID 1174); conditions: higher = more signal, called active from +8 up or from −8 down;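 also: MM1S multiple myeloma cell line; test concentration not given here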
Readout: z-score
Lab note: jot the number down without any unit.

• CCOC(=O)C1=CCN(S(=O)(=O)c2ccc(C)cc2)C1c1ccccc1 (centres undefined) = -0.612

GET /value?item= C=CCC(OC(C)=O)[C@@H]1[C@@H](N(Cc2ccc(-c3cccc(C(F)(F)F)c3)o2)C(=O)Cc2ccc(OC)cc2)c2cc(OCCCO)ccc2N1C(=O)Cc1ccc2ccccc2c1 (some centres undefined) &field=z-score returns 0.0919

GET /value?item= O=C(NCC(O)CO)[C@@]1(CCS(=O)(=O)c2ccccc2)COC(c2ccc(OCCCO)cc2)=N1 (some centres undefined) &field=z-score returns -0.169

GET /value?item= CCOC(=O)C1=C[C@@H](C(C)(C)C)N(S(=O)(=O)c2ccc(C)cc2)[C@H]1c1ccc(C)cc1 &field=z-score returns -0.328

GET /value?item= O=C1c2ccccc2[C@](Cc2ccccc2I)(C(=O)NC2CC2)[C@H](c2ccc(CO)cc2)N1Cc1ccccc1C(F)(F)F &field=z-score returns 0.762

GET /value?item= [N-]=[N+]=Nc1ccccc1[C@@H]1OC(c2ccc(OCCCO)cc2)=N[C@]1(Cc1ccccc1)C(=O)NCc1ccccc1 &field=z-score returns -3.62

GET /value?item= C=CCC(OC(C)=O)[C@@H]1[C@@H](N(Cc2ccc(-c3cccc(C(F)(F)F)c3)o2)C(=O)c2cccc3ccccc23)c2cc(OCCCO)ccc2N1C(=O)Cc1ccc(OC)cc1 (some centres undefined) &field=z-score returns 0.0814

GET /value?item= C=C(C)C1CCC(C(O)C2C=CC3C(=O)N(C)C(=O)C3N2Nc2cc(OC)c(OC)c(OC)c2)CC1 (centres undefined) &field=z-score returns -0.901

GET /value?item= COC(=O)c1c2oc(c1C(=O)OC)C(=O)N1CCC[C@H]1Cn1nncc1CN(Cc1ccccc1)C(=O)N[C@H](CO)CC2 &field=z-score returns -0.0795

GET /value?item= COC(=O)[C@@]1(Cc2ccccc2CN=[N+]=[N-])N=C(c2ccc(OCCCO)cc2)O[C@H]1c1ccccc1 &field=z-score returns -5.44

GET /value?item= CCOC(=O)C[C@H]1[C@H](OC(=O)c2ccc(-c3ccccc3)cc2)[C@@H](NC(=O)Cc2ccc(OC)cc2)c2cc(OCCCO)ccc2N1C(=O)Cc1ccc(OC)cc1 &field=z-score returns 0.796

GET /value?item= COCC(=C=CC[C@@H](O)c1cccc(OCCO)c1)CCO &field=z-score returns -0.0845

GET /value?item= COc1ccc([Si](C)(C)[C@H]2[C@H](CC(=O)N3CCC[C@H]3CO)O[C@@]3(C(=O)N(Cc4ccc(N5CCC5=O)cc4)c4ccccc43)[C@@H]2C)cc1 &field=z-score returns -1.7

GET /value?item= O=c1cccc(-c2ccc(F)cc2)o1 &field=z-score returns 0.306

GET /value?item= CN(C)CCCCCCNC(=O)[C@@H]1C[C@@H]2C(=O)N[C@@H](CCCCN)C(=O)N2[C@@H]1c1ccc(O)cc1 &field=z-score returns 1.79

GET /value?item= O=C1O[C@H](c2ccccc2)[C@H](c2ccccc2)N2[C@H]1[C@@H](C(=O)N1CCCCCCC1)[C@]1(C(=O)Nc3ccc(C#CC4(O)CCCCCC4)cc31)[C@H]2c1ccc(O)cc1 &field=z-score returns -0.5

GET /value?item= COC(=O)C1=CC(CCCO)=CC(C)N(Cc2cccc(OC(F)(F)F)c2)C=C1C(=O)OC (centres undefined) &field=z-score returns -0.0934

GET /value?item= CN1C(=O)[C@@H]2[C@@H](CC(COc3ccccc3)=C([C@H](O)CCc3ccccc3)[C@@H]2CO)C1=O &field=z-score returns 0.0223

GET /value?item= COC(=O)[C@@]1(Cc2ccc(F)cc2)[C@H]2c3cc(C(=O)N(C)C)n(Cc4c(CO)[nH]cc(C)c4=O)c3C[C@H]2CN1C(=O)c1ccccc1 &field=z-score returns -1.72

The origin of these recorded values is PubChem BioAssay.
